B1: CAMK2B (parent)
chain: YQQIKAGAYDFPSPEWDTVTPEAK

- Variants of: B1
- assayInfo: protein stability index of a GFP-peptide fusion (GPS, HEK-293T) (PSI 1-6); higher = more stable;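 further: lentivirally expressed fusions sorted by FACS into six bins by GFP to DsRed ratio, PSI derived from sequencing read proportions per bin multiplied by bin number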
- conditions: c terminus: a fixed tail appended
testReadout: protein stability index
// keep it numeric: no unit symbol after the value

> print(dat)
                    primarysequence              testreadout  experimentalresult
 1   YQQIKALAYDFPSPEWDTVTPEAK [G7L]  protein stability index                   3
 2   YQQIKAFAYDFPSPEWDTVTPEAK [G7F]  protein stability index                1.86
 3  YQQIKAGAYKFPSPEWDTVTPEAK [D10K]  protein stability index                2.25
 4   YQQIKAEAYDFPSPEWDTVTPEAK [G7E]  protein stability index                4.23
 5  YQQIKAGAYDFPSPEWDTVTPRAK [E22R]  protein stability index                2.91
 6  YQQIKAGAYDFPSPEWDTVTAEAK [P21A]  protein stability index                3.44
 7   YQQIKAGAGDFPSPEWDTVTPEAK [Y9G]  protein stability index                 4.6
 8  YQQIKAGAYNFPSPEWDTVTPEAK [D10N]  protein stability index                2.52
 9   YQQIKADAYDFPSPEWDTVTPEAK [G7D]  protein stability index                3.99
10  YQQIKAGAYDLPSPEWDTVTPEAK [F11L]  protein stability index                3.97

The variant listed as YQQIKAGAYDFPSPEWDCVTPEAK [T18C] shows protein stability index equal to 3.37

Entry YQQIYAGAYDFPSPEWDTVTPEAK [K5Y] — recorded protein stability index = 3.11

For this variant ( YQQIKAHAYDFPSPEWDTVTPEAK [G7H] ), measured protein stability index is 3.69

Measured protein stability index, YRQIKAGAYDFPSPEWDTVTPEAK [Q2R] : 4.06

Per the records, this variant ( YQQIKAGAYDFPSPEQDTVTPEAK [W16Q] ) has protein stability index equal to 4.28

YQQIHAGAYDFPSPEWDTVTPEAK [K5H] yielded protein stability index of 3.46

response.value for YQQIKAGAYDFPSPCWDTVTPEAK [E15C] (field: protein stability index) = 2.42

Lab note: YQQIKAGAYDFPSQEWDTVTPEAK [P14Q] gave protein stability index of 3.87

Just so you know, measured protein stability index for YQQIKAGAYDFPSREWDTVTPEAK [P14R] came out at 3.37

Lab note: measured protein stability index of YQQIKAGAYDFPSPMWDTVTPEAK [E15M] was 2.77

GET /value?item= YQQIKAGAYDFPSPEWDTVTSEAK [P21S] &field=protein stability index returns 3.62

Looking up YQQIKAGAMDFPSPEWDTVTPEAK [Y9M] , I found its protein stability index recorded as 4.1

So for YQQIKAGAYDFPSPELDTVTPEAK [W16L] , the logged protein stability index turned out to be 4.36

Measured protein stability index of YQQHKAGAYDFPSPEWDTVTPEAK [I4H] : 3.56

Please fill in: protein stability index reported for YQQIKAGAYDFPSPEWDDVTPEAK [T18D] = 4.25

Lab book: protein stability index of YQQIKAGAYDFISPEWDTVTPEAK [P12I] noted as 3.21

Consider YQQIKAGAYDFCSPEWDTVTPEAK [P12C] . Its measured protein stability index is 2.76

Just so you know, measured protein stability index for YKQIKAGAYDFPSPEWDTVTPEAK [Q2K] came out at 3.8

# protein stability index (variant: YQQIKAGAYDFPSPEWDTPTPEAK [V19P] ) is 3.69

The reported value for YQRIKAGAYDFPSPEWDTVTPEAK [Q3R] in terms of protein stability index is 2.22
